Reported IC50 values follow for various compounds
target: mouse VISTA (mVISTA) (Mus musculus, UniProt Q9D659); construct: expressed in transfected cells; host or cells: Human embryonic kidney 293T cells; test: Cell-Based Binding High-Content Assay For mVISTA (HC CBA mVISTA); settings: read-out: HC CBA mVISTA IC50
Sequence (Q9D659 33-308): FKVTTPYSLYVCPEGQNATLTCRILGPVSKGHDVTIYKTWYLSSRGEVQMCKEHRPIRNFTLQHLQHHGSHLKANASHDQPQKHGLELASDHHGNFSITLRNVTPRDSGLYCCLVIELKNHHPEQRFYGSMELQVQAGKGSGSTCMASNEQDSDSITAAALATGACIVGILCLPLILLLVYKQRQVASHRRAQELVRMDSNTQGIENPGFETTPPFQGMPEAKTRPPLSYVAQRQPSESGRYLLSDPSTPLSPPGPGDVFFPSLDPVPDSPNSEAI
Positions of bridges follow the written chain, without caps; N, C: chain ends. Non-standard residues stand in square brackets, D forms with d. Residues, ends and D or L forms follow the SMILES beside them. Phe(3-CF3) = N[C@@H](Cc1cccc(C(F)(F)F)c1)C(=O)O; 2Nal = N[C@@H](Cc1ccc2ccccc2c1)C(=O)O; Gly(cPent) = N[C@H](C(=O)O)C1CCCC1; Cit = NC(=O)NCCC[C@H](N)C(=O)O; Ahp(2) = CCCCC[C@H](N)C(=O)O; NMeNle = CCCC[C@H](NC)C(=O)O; Tle = CC(C)(C)[C@H](N)C(=O)O; Pip = O=C(O)[C@@H]1CCCCN1; NHexGly = CCCCCCNCC(=O)O; Nle = CCCC[C@H](N)C(=O)O
MEASURE NAME: IC50 (nM)

# COMPOUND, MEASURE NAME, QUANTITATIVE RESULT
data = [
    ("CCCCCCN1CC(=O)N[C@@H](Cc2ccc(O)cc2)C(=O)N[C@@H](CCCC)C(=O)N[C@@H](CC(N)=O)C(=O)N[C@@H](CCCNC(N)=O)C(=O)N(C)[C@@H](CCCC)C(=O)N[C@@H](CCCCC)C(=O)N2CCCC[C@H]2C(=O)N[C@@H](C(C)C)C(=O)N[C@@H](CO)C(=O)N[C@H](C(=O)NCC(N)=O)CSCC(=O)N[C@@H](Cc2ccccc2)C(=O)N[C@@H](Cc2c[nH]c3ccccc23)C(=O)N[C@@H](CC(=O)O)C1=O [compound 1146] ({CH2CO}-FWD[NHexGly]Y[Nle]N[Cit][NMeNle][Ahp(2)][Pip]VSCG-NH2; thioether N-14)", "IC50", 21.7),
    ("CCCCCCN1CC(=O)N[C@@H](Cc2ccc(O)cc2)C(=O)N[C@@H](CCCC)C(=O)N[C@@H](CC(N)=O)C(=O)N[C@@H](CCCNC(=N)N)C(=O)N(C)[C@@H](CCCC)C(=O)N[C@@H](CCCCC)C(=O)N2CCC[C@H]2C(=O)N[C@@H](C(C)(C)C)C(=O)N[C@@H](CC(=O)O)C(=O)N[C@H](C(=O)NCC(N)=O)CSCC(=O)N[C@@H](Cc2ccccc2)C(=O)N[C@@H](Cc2c[nH]c3ccccc23)C(=O)N[C@@H](CC(=O)O)C1=O [Example 1396] ({CH2CO}-FWD[NHexGly]Y[Nle]NR[NMeNle][Ahp(2)]P[Tle]DCG-NH2; thioether N-14)", "IC50", 26.8),
    ("CCCCCCN1CC(=O)N[C@@H](Cc2ccc(O)cc2)C(=O)N[C@@H](CCCC)C(=O)N[C@@H](CC(N)=O)C(=O)N[C@@H](CCCNC(=N)N)C(=O)N[C@@H](CC(C)C)C(=O)N[C@@H](C2CCCC2)C(=O)N2CCC[C@H]2C(=O)N[C@@H](C(C)C)C(=O)N[C@@H](CC(=O)O)C(=O)N[C@H](C(=O)NCC(=O)O)CSCC(=O)N[C@@H](Cc2ccc3ccccc3c2)C(=O)N[C@@H](Cc2c[nH]c3ccccc23)C(=O)N[C@@H](CC(=O)O)C1=O [compound 1181] ({CH2CO}-[2Nal]WD[NHexGly]Y[Nle]NRL[Gly(cPent)]PVDCG-OH; thioether N-14)", "IC50", 15.9),
    ("CCCCCCN1CC(=O)N[C@@H](Cc2ccc(O)cc2)C(=O)N[C@@H](CC(C)C)C(=O)N[C@@H](CC(N)=O)C(=O)N[C@@H](CCCNC(=N)N)C(=O)N[C@@H](CC(C)C)C(=O)N[C@@H](CCCCC)C(=O)N2CCC[C@H]2C(=O)N[C@@H](C(C)C)C(=O)N[C@@H](C(C)C)C(=O)N[C@H](C(=O)NCC(=O)O)CSCC(=O)N[C@@H](Cc2ccccc2)C(=O)N[C@@H](Cc2cccc(C(F)(F)F)c2)C(=O)N[C@@H](CC(=O)O)C1=O [compound 1333] ({CH2CO}-F[Phe(3-CF3)]D[NHexGly]YLNRL[Ahp(2)]PVVCG-OH; thioether N-14)", "IC50", 27.6),
]

---

Catalogue of pIC50 values
target: mouse VISTA (mVISTA) (Mus musculus); construct: expressed in transfected cells; host or cells: Human embryonic kidney 293T cells; experiment: Cell-Based Binding High-Content Assay For mVISTA (HC CBA mVISTA); details: cell-based binding high-content assay, mVISTA; the 16th table; read-out: HC CBA mVISTA IC50
pIC50: −log10 of the molar value. Positions of bridges follow the written chain, without caps; N, C: chain ends. Non-standard residues stand in square brackets, D forms with d. Residues, ends and D or L forms follow the SMILES beside them. 2Nal = N[C@@H](Cc1ccc2ccccc2c1)C(=O)O; Tic = O=C(O)[C@@H]1Cc2ccccc2CN1; Ahp(2) = CCCCC[C@H](N)C(=O)O; NMeNle = CCCC[C@H](NC)C(=O)O; NHexGly = CCCCCCNCC(=O)O; Nle = CCCC[C@H](N)C(=O)O

# COMPOUND, pIC50
data = [
    ("CCCCCCN1CC(=O)N[C@@H](Cc2ccc(O)cc2)C(=O)N[C@@H](CCCC)C(=O)N[C@@H](CC(N)=O)C(=O)N[C@@H](CCCNC(=N)N)C(=O)N[C@@H](CC(C)C)C(=O)N[C@@H](CCCCC)C(=O)N2CCC[C@H]2C(=O)N[C@@H](C(C)C)C(=O)N[C@@H](CC(=O)O)C(=O)N[C@H](C(=O)N[C@@H](CO)C(N)=O)CSCC(=O)N[C@@H](Cc2ccc3ccccc3c2)C(=O)N[C@@H](Cc2ccc(O)cc2)C(=O)N[C@@H](CC(=O)O)C1=O [Ex 1315] ({CH2CO}-[2Nal]YD[NHexGly]Y[Nle]NRL[Ahp(2)]PVDCS-NH2; thioether N-14)", 7.43),
    ("CCCCCCN1CC(=O)N[C@@H](Cc2ccc(O)cc2)C(=O)N[C@@H](CC(C)C)C(=O)NCC(=O)N[C@@H](CCCNC(=N)N)C(=O)N(C)[C@@H](CCCC)C(=O)N[C@@H](CCCCC)C(=O)N2CCC[C@H]2C(=O)N[C@@H](C(C)C)C(=O)N[C@@H](CO)C(=O)N[C@H](C(=O)NCC(=O)O)CSCC(=O)N[C@@H](Cc2ccc3ccccc3c2)C(=O)N[C@@H](Cc2ccc(O)cc2)C(=O)N[C@@H](CC(=O)O)C1=O [Ex 1291] ({CH2CO}-[2Nal]YD[NHexGly]YLGR[NMeNle][Ahp(2)]PVSCG-OH; thioether N-14)", 8.29),
    ("CCCCCCN1CC(=O)N[C@@H](Cc2ccc(O)cc2)C(=O)N[C@@H](CCCC)C(=O)NCC(=O)N[C@@H](CCCNC(=N)N)C(=O)N[C@@H](CC(C)C)C(=O)N[C@@H](CCCCC)C(=O)N2CCC[C@H]2C(=O)N[C@@H](C(C)C)C(=O)N[C@@H](CO)C(=O)N[C@H](C(=O)NCC(N)=O)CSCC(=O)N[C@@H](Cc2ccc3ccccc3c2)C(=O)N[C@@H](Cc2ccc(O)cc2)C(=O)N[C@@H](CC(=O)O)C1=O [Ex 1276] ({CH2CO}-[2Nal]YD[NHexGly]Y[Nle]GRL[Ahp(2)]PVSCG-NH2; thioether N-14)", 7.39),
    ("CCCCCCN1CC(=O)N[C@@H](Cc2ccc(O)cc2)C(=O)N[C@@H](CCCC)C(=O)N[C@@H](CC(=O)O)C(=O)N[C@@H](CCCNC(=N)N)C(=O)N[C@@H](CC(C)C)C(=O)N[C@@H](CCCCC)C(=O)N2CCC[C@H]2C(=O)N[C@@H](C(C)C)C(=O)N[C@@H](CC(=O)O)C(=O)N[C@H](C(=O)N[C@@H](CO)C(N)=O)CSCC(=O)N[C@@H](Cc2ccc3ccccc3c2)C(=O)N[C@@H](Cc2ccc(O)cc2)C(=O)N[C@@H](CC(=O)O)C1=O [Ex 1317] ({CH2CO}-[2Nal]YD[NHexGly]Y[Nle]DRL[Ahp(2)]PVDCS-NH2; thioether N-14)", 7.76),
    ("CCCCCCN1CC(=O)N[C@@H](Cc2ccc(O)cc2)C(=O)N[C@@H](C(C)C)C(=O)NCC(=O)N[C@@H](CCCNC(=N)N)C(=O)N[C@@H](CC(C)C)C(=O)N[C@@H](CCCCC)C(=O)N2CCC[C@H]2C(=O)N[C@@H](C(C)C)C(=O)N[C@@H](CC(=O)O)C(=O)N[C@H](C(=O)N[C@@H](CO)C(N)=O)CSCC(=O)N[C@@H](Cc2ccc3ccccc3c2)C(=O)N[C@@H](Cc2ccc(O)cc2)C(=O)N[C@@H](CC(=O)O)C1=O [Ex 1314] ({CH2CO}-[2Nal]YD[NHexGly]YVGRL[Ahp(2)]PVDCS-NH2; thioether N-14)", 8.85),
    ("CCCCCCN1CC(=O)N[C@@H](Cc2ccc(O)cc2)C(=O)N[C@@H](CCCC)C(=O)N[C@@H](CC(N)=O)C(=O)N[C@@H](CCCNC(=N)N)C(=O)N2Cc3ccccc3C[C@H]2C(=O)N[C@@H](CCCCC)C(=O)N2CCC[C@H]2C(=O)N[C@@H](C(C)C)C(=O)N[C@@H](CO)C(=O)N[C@H](C(=O)NCC(N)=O)CSCC(=O)N[C@@H](Cc2ccc3ccccc3c2)C(=O)N[C@@H](Cc2ccc(O)cc2)C(=O)N[C@@H](CC(=O)O)C1=O [Ex 1304] ({CH2CO}-[2Nal]YD[NHexGly]Y[Nle]NR[Tic][Ahp(2)]PVSCG-NH2; thioether N-14)", 7.50),
    ("CCCCCCN1CC(=O)N[C@@H](Cc2ccc(O)cc2)C(=O)N[C@@H](CCCC)C(=O)NCC(=O)N[C@@H](CCCNC(=N)N)C(=O)N[C@@H](CC(C)C)C(=O)N[C@@H](CCCCC)C(=O)N2CCC[C@H]2C(=O)N[C@@H](C(C)C)C(=O)N[C@@H](CC(=O)O)C(=O)N[C@H](C(=O)NCC(N)=O)CSCC(=O)N[C@@H](Cc2ccc3ccccc3c2)C(=O)N[C@@H](Cc2ccc(O)cc2)C(=O)N[C@@H](CC(=O)O)C1=O [Ex 1284] ({CH2CO}-[2Nal]YD[NHexGly]Y[Nle]GRL[Ahp(2)]PVDCG-NH2; thioether N-14)", 8.44),
    ("CCCCCCN1CC(=O)N[C@@H](Cc2ccc(O)cc2)C(=O)N[C@@H](CC(C)C)C(=O)NCC(=O)N[C@@H](CCCNC(=N)N)C(=O)N[C@@H](CC(C)C)C(=O)N[C@@H](CCCCC)C(=O)N2CCC[C@H]2C(=O)N[C@@H](C(C)C)C(=O)N[C@@H](CO)C(=O)N[C@H](C(=O)NCC(=O)O)CSCC(=O)N[C@@H](Cc2ccc3ccccc3c2)C(=O)N[C@@H](Cc2ccc(O)cc2)C(=O)N[C@@H](CC(=O)O)C1=O [Ex 1274] ({CH2CO}-[2Nal]YD[NHexGly]YLGRL[Ahp(2)]PVSCG-OH; thioether N-14)", 7.49),
]
